Values compiled from ChEMBL document CHEMBL1133407.

# TEST_SYSTEM: Integrin alpha-IIb/beta-3 (Homo sapiens, UniProt P05106+P08514)
# Sequence (P05106 27-788 limits assumed): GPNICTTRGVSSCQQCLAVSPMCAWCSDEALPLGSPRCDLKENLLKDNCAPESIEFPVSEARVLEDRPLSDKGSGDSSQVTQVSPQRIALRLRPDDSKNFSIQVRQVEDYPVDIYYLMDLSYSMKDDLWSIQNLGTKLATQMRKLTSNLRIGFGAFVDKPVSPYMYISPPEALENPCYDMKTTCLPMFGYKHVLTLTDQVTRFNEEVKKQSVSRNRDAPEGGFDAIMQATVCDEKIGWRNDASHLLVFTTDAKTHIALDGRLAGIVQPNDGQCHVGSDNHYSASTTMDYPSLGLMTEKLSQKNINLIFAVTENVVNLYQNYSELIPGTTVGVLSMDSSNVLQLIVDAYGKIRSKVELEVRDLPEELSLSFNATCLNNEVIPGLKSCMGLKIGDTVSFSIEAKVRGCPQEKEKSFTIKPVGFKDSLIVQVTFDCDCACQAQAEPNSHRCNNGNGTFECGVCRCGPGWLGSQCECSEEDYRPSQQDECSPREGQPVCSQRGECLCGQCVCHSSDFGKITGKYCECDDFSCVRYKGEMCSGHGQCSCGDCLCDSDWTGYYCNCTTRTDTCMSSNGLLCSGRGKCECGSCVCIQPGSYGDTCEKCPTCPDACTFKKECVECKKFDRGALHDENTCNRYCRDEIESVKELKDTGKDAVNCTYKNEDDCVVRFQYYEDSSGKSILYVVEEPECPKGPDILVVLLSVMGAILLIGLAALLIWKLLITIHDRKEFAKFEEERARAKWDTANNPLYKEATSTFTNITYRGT
# Sequence (P08514 32-887 limits assumed): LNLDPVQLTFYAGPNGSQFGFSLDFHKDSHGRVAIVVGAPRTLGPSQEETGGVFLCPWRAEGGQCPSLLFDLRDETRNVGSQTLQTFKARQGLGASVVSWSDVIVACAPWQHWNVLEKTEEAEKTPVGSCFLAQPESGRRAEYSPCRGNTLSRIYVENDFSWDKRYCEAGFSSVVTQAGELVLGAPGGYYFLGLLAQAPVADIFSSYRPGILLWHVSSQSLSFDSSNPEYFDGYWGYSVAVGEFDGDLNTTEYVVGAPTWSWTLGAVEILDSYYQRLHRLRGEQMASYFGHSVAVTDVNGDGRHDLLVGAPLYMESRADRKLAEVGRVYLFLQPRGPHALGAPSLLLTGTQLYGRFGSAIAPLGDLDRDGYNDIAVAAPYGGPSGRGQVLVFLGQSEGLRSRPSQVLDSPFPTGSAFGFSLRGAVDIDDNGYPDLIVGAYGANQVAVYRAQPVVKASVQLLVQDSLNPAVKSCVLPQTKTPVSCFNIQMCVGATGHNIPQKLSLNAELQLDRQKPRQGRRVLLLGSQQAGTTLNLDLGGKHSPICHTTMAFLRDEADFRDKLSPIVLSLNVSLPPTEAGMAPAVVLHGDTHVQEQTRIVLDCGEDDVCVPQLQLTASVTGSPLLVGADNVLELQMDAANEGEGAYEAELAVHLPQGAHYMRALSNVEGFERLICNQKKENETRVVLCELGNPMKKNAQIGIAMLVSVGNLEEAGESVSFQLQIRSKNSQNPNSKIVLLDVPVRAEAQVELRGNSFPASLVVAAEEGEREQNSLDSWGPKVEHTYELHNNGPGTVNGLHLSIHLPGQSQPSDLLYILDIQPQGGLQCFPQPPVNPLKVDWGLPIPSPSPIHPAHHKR
# Sequence (P08514 891-1039 limits assumed): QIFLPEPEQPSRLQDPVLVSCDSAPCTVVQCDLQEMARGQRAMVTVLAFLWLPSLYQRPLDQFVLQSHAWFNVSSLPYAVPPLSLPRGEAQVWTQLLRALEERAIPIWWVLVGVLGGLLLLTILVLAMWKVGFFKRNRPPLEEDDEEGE
# ASSAY_PROTOCOL: Inhibition of Platelet glycoprotein IIb/Platelet glycoprotein IIIa binding in unactivated human platelets
pIC50: −log10 of the molar value.
# pIC50 values compiled below
RECORDED_METRIC: pIC50

INSERT INTO results (compound, value_operator, reported) VALUES
  ('N=C(N)c1ccc(C2=NOC(CC(=O)NCCC(=O)O)C2)cc1 (centres undefined)', '=', 6.95),
  ('N=C(N)c1ccc(C2=NOC(CC(=O)N3CCCCC3CC(=O)O)C2)cc1 (single isomer, unassigned; isomer B)', '=', 5.24),
  ('N=C(N)c1ccc(C2=NOC(CC(=O)N3CCCCC3CC(=O)O)C2)cc1 (single isomer, unassigned; isomer C)', '=', 7.19),
  ('N=C(N)c1ccc(C2=NOC(CC(=O)N3CCCCC3CC(=O)O)C2)cc1 (single isomer, unassigned; isomer D)', '<', 5.30);
